- assay: Rat pilot single-dose oral pharmacokinetic study with Compound EG
- Assay type: in vivo
- condition.details: male, Sprague-Dawley, rat, plasma; 100 mg/kg single oral gavage, 1 HR
assay.readout: concentration at 1 h
Give your result as the value with the unit written after it.

So what does the record say about concentration at 1 h for "Cc1ccc(Cc2nnn[nH]2)cc1OCc1c(C)cccc1C" ?
22000 ng/mL

----------
- assay: Mouse oral single-dose pharmacokinetic study with Compound EB
- Format: in vivo
- condition.details: male, mouse, plasma, po, 100 mg/kg, male mice, 100 mg/kg single oral gavage, 24 hr; read-out: Compound EB concentration in plasma, average
assay.readout: concentration at 24 h (ng/mL)
Supply the numeric figure in ng/mL, leaving out any unit text.

So what does the record say about concentration at 24 h for "Cc1cccc(C)c1COc1cccc(-c2nnn[nH]2)c1" ?
3000

----------
- assay: Rat pilot single-dose oral pharmacokinetic study with Compound EG
- Type: in vivo
- condition.details: male, Sprague-Dawley, rat, plasma; 100 mg/kg single oral gavage, 0 HR
- Protocol: Rat Pilot Single-Dose Oral Pharmacokinetic Study with Compound EG Determination of the Plasma Profile of Compound EG Following Single Oral Gavage Administration to Male Rats. Test compound was suspended in 1% HPMC using a tissue homogenizer to minimize particles and maximize uniformity of the suspension and stored at 4° C. […] Following centrifugation, the plasma were harvested into a single tube for each animal at each time point and immediately frozen at −80° C. until analyzed using LC/MS-MS. […]
assay.readout: concentration at 0 h (ng/mL)
Supply the numeric figure in ng/mL, leaving out any unit text.

So what does the record say about concentration at 0 h for Cc1ccc(Cc2nnn[nH]2)cc1OCc1c(C)cccc1C [Compound EG] ?
0

----------
- assay: Rat pilot single-dose oral pharmacokinetic study with Compound EC
- Format: in vivo
- condition.details: Sprague-Dawley, rat; male rats, 100 mg/kg single oral gavage, plasma
assay.readout: Cmax
Give your result as the value with the unit written after it.

So what does the record say about Cmax for Cc1cccc(C)c1COc1cccc(Cc2nnn[nH]2)c1 [Compound EC] ?
61 µg/mL

----------
- assay: Rat pilot single-dose oral pharmacokinetic study with Compound EC
- Format: in vivo
- condition.details: male, Sprague-Dawley, rat, plasma; 100 mg/kg single oral gavage, 1 HR
assay.readout: concentration at 1 h (ng/mL)
Supply the numeric figure in ng/mL, leaving out any unit text.

So what does the record say about concentration at 1 h for Cc1cccc(C)c1COc1cccc(Cc2nnn[nH]2)c1 [Compound EC] ?
35000

----------
- assay: Rat pilot single-dose oral pharmacokinetic study with Compound EG
- Type: in vivo
- condition.details: male, Sprague-Dawley, rat, plasma; 100 mg/kg single oral gavage, 24 HR
assay.readout: concentration at 24 h (ng/mL)
Supply the numeric figure in ng/mL, leaving out any unit text.

So what does the record say about concentration at 24 h for "Cc1ccc(Cc2nnn[nH]2)cc1OCc1c(C)cccc1C" ?
0

----------
- assay: Rat pilot single-dose oral pharmacokinetic study with Compound EB
- Assay type: in vivo
- condition.details: Sprague-Dawley, rat; male rats, 100 mg/kg single oral gavage, plasma; read-out: T ½
assay.readout: half-life
Give your result as the value with the unit written after it.

So what does the record say about half-life for "Cc1cccc(C)c1COc1cccc(-c2nnn[nH]2)c1" ?
3.99 h

----------
- assay: Rat pilot single-dose oral pharmacokinetic study with Compound EC
- Assay type: in vivo
- condition.details: male, Sprague-Dawley, rat, plasma; 100 mg/kg single oral gavage, 0.25 HR
- Description: Rat Pilot Single-Dose Oral Pharmacokinetic Study with Compound EC Determination of the Plasma Profile of Compound EC Following Single Oral Gavage Administration to Male Rats. Test compound was suspended in 1% HPMC using a tissue homogenizer to minimize particles and maximize uniformity of the suspension and stored at 4° C. […] Following centrifugation, the plasma were harvested into a single tube for each animal at each time point and immediately frozen at −80° C. until analyzed using LC/MS-MS. […]
assay.readout: concentration at 0.25 h (ng/mL)
Supply the numeric figure in ng/mL, leaving out any unit text.

So what does the record say about concentration at 0.25 h for "Cc1cccc(C)c1COc1cccc(Cc2nnn[nH]2)c1" ?
27000
